tested on: RPMI-8226 leukemia; assay: NCI-60 one-dose screen, 48 h (100 = growth as untreated, 0 = no growth, -100 = all killed); conditions: 10 µM
The panel holds about 83,000 compounds, 20% with a hit somewhere; the sample as a whole holds those more often.
READOUT_NAME: growth (%)

molecule=c1cc2cccc3c4cccc5cccc(c(c1)c23)c54 measured_result=113
molecule=COCCOC(=O)c1ccc(C(C)C)cc1 measured_result=108
molecule=Nc1ccc(N)c([N+](=O)[O-])c1 measured_result=98.8
molecule=Cc1cc(C)c(CC(=O)O)c(C)c1 measured_result=112
molecule=O=C(Cc1nc2ccc([N+](=O)[O-])cc2nc1CC(=O)c1ccccc1)c1ccccc1 measured_result=42.9
molecule="O=C(O)C(c1ccccc1)C(O)c1ccccc1 (stereo not drawn)" measured_result=101
molecule=CC(C)OC(=O)c1cc(NC(=S)OC(C)C)ccc1Cl measured_result=83.3
molecule=CCCCC(=O)c1ccc(OC)cc1 measured_result=99.8
molecule=CC(=O)NCc1cc(C)c(C)cc1C measured_result=88.1
molecule=[O-][N+](=Nc1cccc(Cl)c1)c1cccc(Cl)c1 measured_result=81.9
molecule=NC(=S)NN=C1CCCC1 measured_result=72.6
molecule=CCO/C=C1\SC(=S)N(c2cccc(C)c2)C1=O measured_result=92.4
molecule="OC(c1ccccn1)C(O)c1ccccn1 (stereo not drawn)" measured_result=108

====

Test system: NCI-H460 lung
Assay: NCI-60 one-dose screen, 48 h (100 = growth as untreated, 0 = no growth, -100 = all killed)
Details: 10 µM
Description: Growth inhibition of the NCI-H460 human Non-Small Cell Lung tumor cell line is measured as a screen for anti-cancer activity. Cells are grown in 96 well plates and exposed to the test compound for 48 hours. Compounds are tested at a single concentration, which is 10^-5 M for most compounds. The reported endpoint is percent growth (GI% or GIPRCNT), where numbers from 0 - 100% represent growth inhibition, and numbers from -100% - 0 represent cell death. […]
Compounds without any hit were thinned out: in the full panel of roughly 83,000, 20% have a hit.
growth listing for selected compounds.
READOUT_NAME: growth (%)

compound=COc1cc(CN)ccc1O readout_name=growth measured_result=91.4
compound="CCCCC(CC)COC(C)=O (configuration not stated)" readout_name=growth measured_result=106
compound=CC(C)CCOC(=O)c1ccccc1 readout_name=growth measured_result=106
compound=COc1ccc2c(c1)CCc1c-2n[nH]c1-c1[nH]nc2c1CCc1cc(OC)ccc1-2 readout_name=growth measured_result=53.5
compound=O=C(/C=C\c1ccc(O)cc1)c1ccccc1 readout_name=growth measured_result=113
compound=c1ccc2c(c1)Sc1ccccc1S2 readout_name=growth measured_result=101
compound=COc1cc2c(cc1OC)[C@H](C(=O)O)[C@@H](c1ccc(OC(C)C)c(OC)c1)N(C)C2=O readout_name=growth measured_result=105

====

tested on: MALME-3M melanoma; test: NCI-60 one-dose screen, 48 h (100 = growth as untreated, 0 = no growth, -100 = all killed); conditions: 10 µM
The panel holds about 83,000 compounds, 20% with a hit somewhere; the sample as a whole holds those more often.
READOUT_NAME: growth (%)

compound=N#C/C(=C\c1cc(O)c(O)c(O)c1)C(N)=O unit_string=% measured_result=115
compound="CC1CCC2C(C)(C)C3CC12CC1OC13C (stereo not drawn)" unit_string=% measured_result=107
compound=N#CCc1ccc([N+](=O)[O-])cc1 unit_string=% measured_result=148
compound="CCC(C)(O)c1ccc(C)cc1 (stereo not drawn)" unit_string=% measured_result=119
compound=CC(C)C(C#N)(C(C)C)C(C)C unit_string=% measured_result=92.9
compound=COc1cc(C(N)=O)cc(OC)c1OC unit_string=% measured_result=110
compound=O=C(Nc1cccc(NC(=O)Nc2cc(C(F)(F)F)ccc2Cl)c1)Nc1cc(C(F)(F)F)ccc1Cl unit_string=% measured_result=2.44
compound=Cc1cc(/C=C/c2ccc3cc(N(C)C)ccc3[n+]2C)c(C)n1-c1ccccc1 unit_string=% measured_result=-56.9
compound=c1ncc2[nH]cnc2n1 unit_string=% measured_result=126
compound=Cc1c(O)cccc1O unit_string=% measured_result=156
compound=S=c1sc2ccccc2n1CN1CCCCC1 unit_string=% measured_result=86.6
compound=O=c1[nH]c(O)c(/C=C2/C=Nc3ccccc32)[nH]1 unit_string=% measured_result=125
compound=CCS(=O)(=O)c1cc(=O)[nH]c(=O)[nH]1 unit_string=% measured_result=56.9

====

tested on: SF-295 CNS; assay: NCI-60 one-dose screen, 48 h (100 = growth as untreated, 0 = no growth, -100 = all killed); conditions: 10 µM
This is part of a sample that, as a whole, favours compounds with a hit. Of some 83,000 tested, about 20% had one in any assay.
READOUT_NAME: growth (%)

molecule=Cc1cccc(CO)c1 readout_name=growth measured_result=100
molecule=CCOC(=O)C(CCC(C)C)C(=O)OCC readout_name=growth measured_result=102
molecule="COC(=O)C(O)c1ccccc1 (stereo not drawn)" readout_name=growth measured_result=139
molecule=Cc1nc2ccccc2c2nnc(SCC(=O)N(Cc3ccccc3)c3ccccc3)n12 readout_name=growth measured_result=88.2
molecule=O=C(Nc1cccc(NC(=O)Nc2cc(C(F)(F)F)ccc2Cl)c1)Nc1cc(C(F)(F)F)ccc1Cl readout_name=growth measured_result=-23.9
molecule=O=C(O)c1ccccc1NCc1ccco1 readout_name=growth measured_result=114
molecule=O=C(/C(=N/O)c1ccccc1)c1ccccc1 readout_name=growth measured_result=94.4
molecule=O=c1[nH]c(O)c(/C=C2/C=Nc3ccccc32)[nH]1 readout_name=growth measured_result=125
molecule=Nc1ccc(N=Nc2ccc(S(=O)(=O)O)cc2)c2ccccc12 readout_name=growth measured_result=99.5
molecule=O=C(O)CSCSCC(=O)O readout_name=growth measured_result=96.6
molecule=O=C(O)c1ccnc(Br)c1 readout_name=growth measured_result=100
molecule=O=C(Cc1ccccc1)Cc1ccccc1 readout_name=growth measured_result=108
molecule=CCCCOC(=O)c1ccc(C(C)C)cc1 readout_name=growth measured_result=101
molecule=OCc1cccc2ccccc12 readout_name=growth measured_result=117
molecule=C=CCNC(=O)c1ccc(OC)cc1 readout_name=growth measured_result=115
molecule="CCCCC(CC)COC(C)=O (stereo not drawn)" readout_name=growth measured_result=99.3
molecule="CCC(C)(O)c1ccc(C)cc1 (stereo not drawn)" readout_name=growth measured_result=109
molecule="CC1CCC2C(C)(C)C3CC12CC1OC13C (stereo not drawn)" readout_name=growth measured_result=104
molecule=CCNc1nc2c(cnn2C)c(=O)[nH]1 readout_name=growth measured_result=103
molecule=COc1ncnc2c1cnn2C readout_name=growth measured_result=112
molecule="OC1OC(COC(c2ccccc2)(c2ccccc2)c2ccccc2)C(O)C(O)C1O (stereo not drawn)" readout_name=growth measured_result=96.8
molecule=COC(=O)c1ccccc1N(C)C readout_name=growth measured_result=98.7
molecule=COc1cc([C@@H]2c3cc4c(cc3[C@H](O)[C@H]3COC(=O)[C@H]23)OCO4)cc(OC)c1OC readout_name=growth measured_result=-14.1
molecule="COc1cc(C2c3cc4c(cc3C3OC(=O)C2C3CO)OCO4)cc(OC)c1OC (stereo not drawn)" readout_name=growth measured_result=3.2
molecule=NNc1ccccc1C(=O)O readout_name=growth measured_result=114
molecule="CC1(C(N)=O)CCC(C(=O)O)C1(C)C (stereo not drawn)" readout_name=growth measured_result=91.2
molecule=O=C(O)CCCC(=O)O readout_name=growth measured_result=110
molecule=O=C1c2ccccc2C(=O)N1OCc1ccccc1 readout_name=growth measured_result=110

====

Tested on: NCI-H322M lung
Assay: NCI-60 one-dose screen, 48 h
Settings: 10 µM
Description: Growth inhibition of the NCI-H322M human Non-Small Cell Lung tumor cell line is measured as a screen for anti-cancer activity. Cells are grown in 96 well plates and exposed to the test compound for 48 hours. Compounds are tested at a single concentration, which is 10^-5 M for most compounds. The reported endpoint is percent growth (GI% or GIPRCNT), where numbers from 0 - 100% represent growth inhibition, and numbers from -100% - 0 represent cell death. […]
About 83,000 compounds went through this panel and 20% of them were active in at least one assay; those are over-represented in the sample as a whole. Calls of active or inactive are those of the source. Rule for the calls: active = growth percent below 10; inactive = the rest.
Labels: t for active, f for inactive

compound=CCCCNC(=O)C(=O)NCCCC assigned_label=f
compound=CC(C)(N)COS(=O)(=O)O assigned_label=f
compound=O=c1[nH]c(O)c(/C=C2/C=Nc3ccccc32)[nH]1 assigned_label=f
compound="CC1OC(Oc2c(-c3ccc(O)c(O)c3)oc3cc(O)cc(O)c3c2=O)C(O)C(O)C1O (stereo not given)" assigned_label=f
compound=S=c1nn[nH]c2ccccc12 assigned_label=f
compound=Cc1c(C(=O)O)c(=O)n(-c2ccccc2)n1C assigned_label=f
compound=COc1ccccc1N=Nc1c(O)ccc2cc(S(=O)(=O)O)ccc12 assigned_label=f
compound="O=C1C=CC2=C3c4cc(O)c(O)cc4CC3(O)COC2=C1O (stereo not given)" assigned_label=f
compound=O=c1cc(-c2ccccc2)oc2c1ccc1ccccc12 assigned_label=f
compound=O=[N+]([O-])c1ccc(-c2ncc(-c3ccc(Br)cc3)o2)cc1 assigned_label=f
compound=COS(=O)(=O)c1ccc(Br)cc1 assigned_label=f
compound=Cc1cc(O)ccc1O assigned_label=f
compound="COC(=O)CCCCC1=CCC2C(=O)C=C(O)C2C1 (stereo not given)" assigned_label=f
compound=N#CSc1cc(S(N)(=O)=O)ccc1N assigned_label=f
compound=CC(C)C(C#N)(C(C)C)C(C)C assigned_label=f
compound=COc1ccc2c(NCCCCCCCCNc3c4ccccc4nc4cc(OC)ccc34)c3ccccc3nc2c1 assigned_label=t
compound=CC(=O)c1c[nH]c2ccccc12 assigned_label=f
compound=C#Cc1cccc(NC(=O)c2ccc(Cl)cc2Cl)c1 assigned_label=f
compound=CNC(=S)NC(C)(C)C assigned_label=f
compound="CC1(O)CCCCC1O (stereo not given)" assigned_label=f
compound=CCO/C=C1\SC(=S)N(c2cccc(C)c2)C1=O assigned_label=f
compound=O=C1C[C@H](c2ccccc2)[C@H](c2ccccc2)C1 assigned_label=f
compound=COC(=O)c1[nH]c(=O)c(C#N)c(C(=O)OC)c1C(=O)c1ccccc1 assigned_label=f
compound=COc1cc(CN)ccc1O assigned_label=f
compound=CO[C@H]1C[C@@H]2CC[C@@H](C)[C@@](O)(O2)C(=O)C(=O)N2CCCC[C@H]2C(=O)O[C@H]([C@H](C)C[C@@H]2CC[C@@H](O)[C@H](OC)C2)CC(=O)[C@H](C)C=C(C)[C@@H](O)[C@@H](OC)C(=O)[C@H](C)C[C@H](C)/C=C/C=C/C=C1C assigned_label=f
